Tested on: K. pneumoniae 2011E
Experiment: In vitro antibacterial activity test (broth microdilution)
Type: cell-based
Details: Klebsiella pneumoniae, 2011E, K. pneumoniae 2011E; read-out: MIC90
assay_metric: MIC90 (µg/mL)

Completed entries (count: 2):
[[record]]
compound = "CC(C)(O/N=C(\\C(=O)N[C@@H]1C(=O)N2C(C(=O)[O-])=C(C[n+]3cnc(N)c(NC(=O)CCNC(=O)c4cc(=O)c(O)cn4O)c3)CSC12)c1nc(N)sc1Cl)C(=O)O (some centres unmarked)"
target_desc = "K. pneumoniae 2011E"
experimental_result = 16

[[record]]
compound = "C[C@H](O/N=C(\\C(=O)N[C@@H]1C(=O)N2C(C(=O)[O-])=C(C[n+]3cnc(N)c(NCCNC(=O)c4cc(=O)c(O)cn4O)c3)CSC12)c1nc(N)sc1Cl)C(=O)O (some centres unmarked)"
target_desc = "K. pneumoniae 2011E"
experimental_result = 2


P. CC(C)(O/N=C(\C(=O)N[C@@H]1C(=O)N2C(C(=O)[O-])=C(C[n+]3cnc(N)c(NC(=O)c4cc(=O)c(O)cn4O)c3)CSC12)c1nc(N)sc1Cl)C(=O)O (some centres unmarked)
Q. C[C@H](O/N=C(\C(=O)N[C@@H]1C(=O)N2C(C(=O)[O-])=C(C[n+]3cnc(N)c(NCCNC(=O)c4cc(=O)c(O)c[nH]4)c3)CSC12)c1nc(N)sc1Cl)C(=O)O (some centres unmarked)
R. CC(C)(O/N=C(\C(=O)N[C@@H]1C(=O)N2C(C(=O)[O-])=C(C[n+]3cnc(N)c(NCCNC(=O)c4cc(=O)c(O)cn4O)c3)CSC12)c1nc(N)sc1Cl)C(=O)O (some centres unmarked)
Ask: Sort by MIC90, descending. Output the labels ranked as instructed.
Result: P, R, Q
(P: 16 µg/mL, R: 8 µg/mL, Q: 4 µg/mL)
